The measurements presented in this section are drawn from patent US8466161B2.

- Test system: HL60 cell line
- Run Description: Inhibitory effect on growth of HL60 cell line (MTT)
- Format: cell-based
- Condition Label: Homo sapiens, HL-60, 72 h, 3 days culture
Measured Property: IC50

Consider the reported IC50 for these molecules:
CS(=O)(=O)N(CCCCCCC(=O)NO)c1ccc(-c2ccc3cc[nH]c3c2)nc1
20 to 50 nM
CN1CCCN(C(=O)N(CCCCCCC(=O)NO)c2ccc(-c3ccc4cc[nH]c4c3)cc2)CC1
50 to 100 nM
COc1cccc(NC(=O)N(CCCCCCC(=O)NO)c2ccc(-c3ccc4cc[nH]c4c3)cc2)c1
50 to 100 nM
CNC(=O)N(CCCCCCC(=O)NO)c1ccc(-c2ccc3cc[nH]c3c2)cc1
50 to 100 nM
CN1CCN(C(=S)N(CCCCCCC(=O)NO)c2ccc(-c3ccc4cc[nH]c4c3)cc2)CC1
50 to 100 nM

Working through the 3 molecules below one at a time, give IC50 for each.
1. O=C(/C=C/c1cccc(S(=O)(=O)Nc2ccccc2)c1)NO [PXD 101, Belinostat, reference compound]
2. COc1cc(NC(=O)N(CCCCCCC(=O)NO)c2ccc(-c3ccc4cc[nH]c4c3)cc2)cc(OC)c1
3. Cn1ncc2ccc(-c3ccc(N(CCCCCCC(=O)NO)C(=O)c4cccnc4)cc3)cc21

Response line:
1. 100 to 200 nM
2. 50 to 100 nM
3. 50 to 100 nM

* * *

For each record, write down the corresponding pIC50.
- Test system: HL60 cell line
- Run Description: Inhibitory effect on growth of HL60 cell line (MTT)
- Format: cell-based
- Condition Label: Homo sapiens, HL-60, 72 h, 3 days culture
pIC50: −log10 of the molar value.

Consider the reported pIC50 for these molecules:
Cn1ncc2ccc(-c3ccc(N(CCCCCCC(=O)NO)S(C)(=O)=O)cn3)cc21 [Compound 327]
7.00 to 7.30
CN1CCN(C(=O)N(CCCCCCC(=O)NO)c2ccc(-c3ccc4[nH]ccc4c3)cc2)CC1 [Compound 313]
7.30 to 7.70
CCN1CCN(C(=O)N(CCCCCCC(=O)NO)c2ccc(-c3ccc4cnn(C)c4c3)cc2)CC1 [Compound 336]
7.00 to 7.30
Cc1cc2cc(-c3ccc(N(CCCCCCC(=O)NO)C(=O)N4CCN(C)CC4)cc3)ccc2[nH]1 [Compound 334]
7.70 to 8.00
CN1CCN(C(=S)N(CCCCCCC(=O)NO)c2ccc(-c3ccc4[nH]ccc4c3)cc2)CC1 [Compound 358]
7.30 to 7.70

Working through the 3 molecules below one at a time, give pIC50 for each.
1. CN1CCN(C(=O)N(CCCCCCC(=O)NO)c2ccc(-c3ccc4c(ccn4C)c3)cc2)CC1 [Compound 341]
2. COc1ccc(C(=O)N(CCCCCCC(=O)NO)c2ccc(-c3ccc4cc[nH]c4c3)cc2)cc1 [Compound 180]
3. Cn1ncc2ccc(-c3ccc(N(CCCCCCC(=O)NO)S(C)(=O)=O)cc3)cc21 [Compound 284]

Response line:
["7.30 to 7.70", "7.30 to 7.70", "7.00 to 7.30"]

Working through the 2 molecules below one at a time, give pIC50 for each.
1. CS(=O)(=O)N(CCCCCCC(=O)NO)c1ccc(-c2ccc3[nH]ccc3c2)nc1 [Compound 328]
2. CN1CCN(C(=O)N(CCCCCCC(=O)NO)c2ccc(-c3ccc4cnn(C)c4c3)cc2)CC1 [Compound 312]

Response line:
7.30 to 7.70
7.00 to 7.30
